This section presents log10 Ki values reported for Prostaglandin E2 receptor EP4 subtype (Homo sapiens, UniProt P35408) in the literature.
MEASUREMENT NAME: log10 Ki (log10 of the value in nM)

MOLECULE: Cc1nn(C)c(Oc2cccc(C(F)(F)F)c2)c1C(=O)N[C@@H](C)c1ccc(C(=O)O)cc1
log10 Ki: 1.15

MOLECULE: CC(C)[C@@H](OCCOc1ccccc1)C(=O)N[C@@H](C)c1ccc(C(=O)O)cc1
log10 Ki: -0.35

MOLECULE: O=C(O)c1ccc(CCC[C@@H]2[C@@H](C#Cc3cc(Cl)cc(Cl)c3)[C@H](O)C[C@H]2Cl)s1
log10 Ki: 2.67

MOLECULE: CCCc1cc(/C=C/[C@@H]2[C@@H](CCCc3ccc(C(=O)O)s3)[C@H](Cl)C[C@H]2O)ccn1
log10 Ki: 2.29

MOLECULE: COc1cc(CC2CCCCC2C(=O)NCc2ccc(C(=O)O)cc2)cc(OC)c1 (single isomer, unassigned)
log10 Ki: 0.30

MOLECULE: C[C@@H](NC(=O)c1c(Cl)sc(Cl)c1Cc1cccc(Cl)c1)c1ccc(C(=O)O)cc1
log10 Ki: -0.05

MOLECULE: O=C(O)CCC/C=C\C[C@@H]1[C@@H](CNc2cc(Cl)cc(Cl)c2)[C@H](O)C[C@H]1Cl
log10 Ki: 3.01

MOLECULE: O=C(O)c1ccc(CCN2C(=O)CCN2CCC(O)Cc2cccc(Cl)c2)cc1 (stereo not shown)
log10 Ki: 1.26

MOLECULE: O=C(O)c1csc(SCC[C@@H]2[C@@H](C#Cc3cc(Cl)cc(Cl)c3)[C@H](O)C[C@H]2Cl)n1
log10 Ki: 1.78

MOLECULE: Cc1sc(C)c(C(=O)N[C@@H](C)c2ccc(C(=O)O)cc2)c1Cc1ccc(Cl)cc1
log10 Ki: 0.53

MOLECULE: O=C(O)c1ccc(CCC[C@@H]2[C@@H](/C=C/C3CCCCC3)[C@H](O)C[C@H]2Cl)s1
log10 Ki: 3.43

MOLECULE: CC(C)CC(O)CCN1CCC(=O)N1CCc1ccc(C(=O)O)cc1 (stereo not shown)
log10 Ki: 3.30

---

This section presents pKi values reported for Prostaglandin E2 receptor EP4 subtype (Homo sapiens) in the literature.
pKi: −log10 of the molar value.

MOLECULE: CCCCCC(O)c1ccc(N2C(=O)CSC2CCCc2ccc(C(=O)O)s2)cc1 (stereo not shown)
TGT: Prostaglandin E2 receptor EP4 subtype (Homo sapiens)
LIMIT QUALIFIER: =
pKi: 5.84
--
MOLECULE: O=C(O)c1ccc(CCC[C@@H]2[C@@H](CCCCCCCO)[C@H](O)C[C@H]2Cl)s1
TGT: Prostaglandin E2 receptor EP4 subtype (Homo sapiens)
LIMIT QUALIFIER: =
pKi: 5.82
--
MOLECULE: O=C(O)c1ccc(CNC(=O)c2cc(-c3cc(F)cc(C(F)(F)F)c3)ccc2Oc2ccc(F)cc2)cc1
TGT: Prostaglandin E2 receptor EP4 subtype (Homo sapiens)
LIMIT QUALIFIER: >
pKi: 7.00
--
MOLECULE: CCCC(C)C(O)CCN1CCC(=O)N1CCc1ccc(C(=O)O)cc1 (stereo not shown)
TGT: Prostaglandin E2 receptor EP4 subtype (Homo sapiens)
LIMIT QUALIFIER: =
pKi: 5.22
